# system-name: ROCK2 (Homo sapiens)
# assay-remarks: ROCK2 kinase inhibition assay (LABCHIP 3000 Reader, FITC peptide substrate)
pIC50: −log10 of the molar value.
Property: pIC50; scope: individual compounds

See these solved cases before continuing.
- compound: "[2H]C([2H])([2H])n1cc(-c2cc(C(=O)N[C@H]3CC4(C3)C[C@H](Oc3ncccc3C(N)=O)C4)cc(S(C)(=O)=O)c2)cn1 (some centres unmarked)"
  observation-type: "pIC50"
  measured-result: "7.30 to 8.30"
- compound: "Cc1ccc(OC2CC3(CC(NC(=O)c4cnn5c(C6CC6)c(OCC(C)(C)O)ccc45)C3)C2)c(C(N)=O)c1 (centres unmarked)"
  observation-type: "pIC50"
  measured-result: "7.30 to 8.30"
- compound: "CC(C)(O)COc1ccc2c(C(=O)NC3CC4(C3)CC(Oc3cc(-c5ncccn5)ccc3C(N)=O)C4)cnn2c1 (centres unmarked)"
  observation-type: "pIC50"
  measured-result: "7.30 to 8.30"
- compound: "CC(C)(O)COc1ccc2c(C(=O)NC3CC4(C3)CC(Oc3nc(OCCN)ncc3C(N)=O)C4)cnn2c1C1CC1 (centres unmarked)"
  observation-type: "pIC50"
  measured-result: "6.60 to 7.30"
- compound: "[H][C@]1(Oc2ncccc2C(N)=O)C[C@@]2(C[C@H](NC(=O)c3cnn4cc(-c5ccc(=O)n(C)c5)ccc34)C2)C1 (some centres unmarked)"
  observation-type: "pIC50"
  measured-result: "7.30 to 8.30"
- compound: "Cc1ncsc1CCOc1ccc2c(C(=O)N[C@H]3CC4(C3)C[C@H](Oc3ncccc3C(N)=O)C4)cnn2c1 (some centres unmarked)"
  observation-type: "pIC50"
  measured-result: "7.30 to 8.30"
- compound: "CC(C)(O)COc1ccc2c(C(=O)NC3CC4(C3)CC(Oc3cc(C5CC5)ccc3C(N)=O)C4)cnn2c1 (centres unmarked)"
  observation-type: "pIC50"
  measured-result: "7.30 to 8.30"
- compound: "CC(C)(O)COc1ccc2c(C(=O)NC3CC4(C3)CC(Oc3cc(-n5ccnc5)ccc3C(N)=O)C4)cnn2c1 (centres unmarked)"
  observation-type: "pIC50"
  measured-result: "6.60 to 7.30"

Fill in: ROCK2 (Homo sapiens) pIC50 for NC(=O)c1cccnc1O[C@H]1CC2(C[C@H](NC(=O)c3ccc4c(c3)S(=O)(=O)NC4=O)C2)C1 (some centres unmarked) = 6.60 to 7.30

So the reported pIC50 for NC(=O)c1cccnc1O[C@H]1CC2(C[C@H](NC(=O)c3cnn4cc(OCC(O)(C(F)(F)F)C(F)(F)F)ccc34)C2)C1 (some centres unmarked) , on ROCK2 (Homo sapiens), turned out to be 7.30 to 8.30

Assay ROCK2 (Homo sapiens), sample NC(=O)c1cccnc1O[C@H]1CC2(C[C@H](NC(=O)c3cnn4ccccc34)C2)C1 (some centres unmarked) , pIC50 read: 6.60 to 7.30

Recorded pIC50 for C[C@@H](O)COc1ccc2c(C(=O)N[C@H]3CC4(C3)C[C@H](Oc3ncccc3C(N)=O)C4)cnn2c1 (some centres unmarked) on ROCK2 (Homo sapiens) was 7.30 to 8.30

Measured on ROCK2 (Homo sapiens), CN(C)CCCc1ccc(C(N)=O)c(OC2CC3(CC(NC(=O)c4cnn5cc(OCC(C)(C)O)ccc45)C3)C2)c1 (centres unmarked) has a documented pIC50 of 7.30 to 8.30

====

# system-name: ROCK2 (Homo sapiens)
# assay-remarks: ROCK2 kinase inhibition assay (LABCHIP 3000 Reader, FITC peptide substrate)
Structures can show the parent of a compound that is named as a salt.
Let's look at some compounds and their measured IC50.

Here NC(=O)c1cccnc1O[C@H]1CC2(C[C@H](NC(=O)c3cnc4cc(N5CCC(F)(F)CC5)ccn34)C2)C1 (stereo partly drawn) [Example 324] was tested on ROCK2 (Homo sapiens), and its IC50 came to < 5 nM

Measured on ROCK2 (Homo sapiens), NC(=O)c1cccnc1OC1CC2(CC(NC(=O)c3cnc(-c4ccc(S(=O)(=O)C5CC5)cc4)s3)C2)C1 (stereo not drawn) [Example 417, TFA] has a documented IC50 of 5 to 50 nM

Result for Cc1c(C(=O)NC2CC3(C2)CC(Oc2ncccc2C(N)=O)C3)cnn1-c1cccc(C#N)c1 (stereo not drawn) [Example 399] , tested on ROCK2 (Homo sapiens), IC50: 50 to 250 nM

Entry NC(=O)c1cccnc1O[C@H]1CC2(C[C@H](NC(=O)c3cnn4cc(OCC(F)F)ccc34)C2)C1 (stereo partly drawn) [Example 313] , tested on ROCK2 (Homo sapiens), has a reported IC50 of 5 to 50 nM

The observed IC50 for [H][C@]1(Oc2ncccc2C(N)=O)C[C@@]2(C[C@H](NC(=O)c3nnn4cc(OCC(C)(C)O)ccc34)C2)C1 (stereo partly drawn) [Example 375] when tested with ROCK2 (Homo sapiens) stands at 50 to 250 nM

The reported ROCK2 (Homo sapiens) IC50 of CC(C)(O)COc1ccc2c(C(=O)NC3CC4(C3)CC(Oc3cc(/C=C/CCO)ccc3C(N)=O)C4)cnn2c1 (stereo not drawn) [Example 290] is 5 to 50 nM

====

IC50 values for the compounds below.
# system-name: ROCK2 (Homo sapiens, UniProt O75116)
# Sequence (O75116 whole entry, species assumed): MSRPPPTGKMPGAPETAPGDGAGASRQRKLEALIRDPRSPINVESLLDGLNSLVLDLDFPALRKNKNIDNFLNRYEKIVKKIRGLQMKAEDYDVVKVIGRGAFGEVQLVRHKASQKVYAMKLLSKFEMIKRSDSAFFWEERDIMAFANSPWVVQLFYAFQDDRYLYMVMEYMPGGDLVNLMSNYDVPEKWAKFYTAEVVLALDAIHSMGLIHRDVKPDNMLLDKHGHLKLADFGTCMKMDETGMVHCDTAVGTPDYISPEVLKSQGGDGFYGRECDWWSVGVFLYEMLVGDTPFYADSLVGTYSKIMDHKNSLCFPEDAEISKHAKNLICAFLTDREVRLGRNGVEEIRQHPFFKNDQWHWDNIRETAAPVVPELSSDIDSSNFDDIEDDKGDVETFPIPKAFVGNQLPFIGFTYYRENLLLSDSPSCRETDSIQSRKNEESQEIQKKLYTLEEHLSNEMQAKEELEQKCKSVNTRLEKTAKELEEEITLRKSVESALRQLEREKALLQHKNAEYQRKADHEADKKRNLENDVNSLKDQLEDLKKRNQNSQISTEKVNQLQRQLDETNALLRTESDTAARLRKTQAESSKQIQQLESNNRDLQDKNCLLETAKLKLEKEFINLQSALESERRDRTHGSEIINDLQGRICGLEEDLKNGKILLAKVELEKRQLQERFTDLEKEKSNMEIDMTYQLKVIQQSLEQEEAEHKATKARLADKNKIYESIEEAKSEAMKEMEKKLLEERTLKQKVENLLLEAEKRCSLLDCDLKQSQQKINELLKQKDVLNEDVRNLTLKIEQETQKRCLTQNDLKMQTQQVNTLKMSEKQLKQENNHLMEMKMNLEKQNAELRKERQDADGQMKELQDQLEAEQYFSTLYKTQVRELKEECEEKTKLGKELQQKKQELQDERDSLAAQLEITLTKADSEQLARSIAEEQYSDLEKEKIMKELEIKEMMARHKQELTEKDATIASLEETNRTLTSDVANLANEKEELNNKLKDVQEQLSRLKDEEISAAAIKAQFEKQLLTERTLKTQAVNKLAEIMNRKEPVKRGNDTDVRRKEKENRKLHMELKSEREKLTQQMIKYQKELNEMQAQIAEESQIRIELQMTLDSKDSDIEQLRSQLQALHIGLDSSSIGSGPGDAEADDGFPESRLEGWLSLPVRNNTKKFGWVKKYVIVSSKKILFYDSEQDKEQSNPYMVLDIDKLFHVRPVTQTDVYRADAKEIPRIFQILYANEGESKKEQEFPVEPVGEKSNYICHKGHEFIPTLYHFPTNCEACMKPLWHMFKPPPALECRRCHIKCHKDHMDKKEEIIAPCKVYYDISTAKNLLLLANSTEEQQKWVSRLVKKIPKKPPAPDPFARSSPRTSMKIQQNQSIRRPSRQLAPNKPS
# assay-remarks: ROCK2 kinase inhibition assay (LABCHIP 3000 Reader, FITC peptide substrate)

- compound: "CC(C)(O)COc1ccc2c(C(=O)NC3CC4(C3)CC(Oc3cc(-c5cccc(S(N)(=O)=O)c5)ccc3C(N)=O)C4)cnn2c1 (stereo not drawn)"
  measured-result: "< 5 nM"
- compound: "NC(=O)c1cccnc1O[C@H]1CC2(C[C@H](NC(=O)c3cnn4cc(OCC[C@H]5COC(=O)N5)ccc34)C2)C1 (stereo partly drawn)"
  measured-result: "< 5 nM"
- compound: "[H][C@]1(Oc2ncccc2C(N)=O)C[C@@]2(C[C@H](NC(=O)c3cn4nc(OC)ccc4n3)C2)C1 (stereo partly drawn)"
  measured-result: "250 to 2500 nM"
- compound: "CC(C)(O)COc1ccc2c(C(=O)NC3CC4(C3)CC(Oc3cc(-c5cc(CO)cc(CO)c5)ccc3C(N)=O)C4)cnn2c1 (stereo not drawn)"
  measured-result: "< 5 nM"
- compound: "NC(=O)c1cccnc1O[C@H]1CC2(C[C@H](NC(=O)c3ccc(F)c(S(N)(=O)=O)c3)C2)C1 (stereo partly drawn)"
  measured-result: "5 to 50 nM"

The compound COc1cccc(C(N)=O)c1OC1CC2(CC(NC(=O)c3cnn4c(C5CC5)c(OCC(C)(C)O)ccc34)C2)C1 (stereo not drawn) showed IC50 equal to 250 to 2500 nM

// field: IC50; key: CC(C)(O)COc1ccc2c(C(=O)NC3CC4(C3)CC(Oc3cc(-c5cccc(C(N)C(=O)O)c5)ccc3C(N)=O)C4)cnn2c1 (stereo not drawn) ; value = 5 to 50 nM

Reported IC50 for CC(C)(O)COc1ccc2c(C(=O)NC3CC4(C3)CC(Oc3cc(-c5cccc(S(C)(=O)=O)c5)ccc3C(N)=O)C4)cnn2c1 (stereo not drawn) was < 5 nM

Reported IC50 for [H][C@]1(Oc2ncccc2C(N)=O)C[C@@]2(C[C@H](NC(=O)c3cc(OCCC(F)(F)F)cc(-c4cccc(S(C)(=O)=O)c4)c3)C2)C1 (stereo partly drawn) was 50 to 250 nM

====

# system-name: ROCK2 (Homo sapiens, UniProt O75116)
# assay-remarks: ROCK2 kinase inhibition assay (LABCHIP 3000 Reader, FITC peptide substrate);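 further: rho kinase reaction read by separating phosphorylated from unphosphorylated peptide on chip, with inhibition of kinase activity computed per concentration across a dose-response series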
observation-type: IC50

Completed entries (count: 3):
- compound: "CCCNC(=O)c1cc(F)cc(-c2ccc(C(N)=O)c(OC3CC4(CC(NC(=O)c5cnn6cc(OCC(C)(C)O)ccc56)C4)C3)c2)c1 (stereo not shown)"
  observation-type: "IC50"
  measured-result: "5 to 50 nM"
- compound: "NC(=O)c1cccnc1OC1CC2(CC(NC(=O)c3cnn(-c4cccc(Cl)c4)c3)C2)C1 (stereo not shown)"
  observation-type: "IC50"
  measured-result: "5 to 50 nM"
- compound: "CC(F)(F)COc1ccc2c(C(=O)N[C@H]3CC4(C3)C[C@H](Oc3ncccc3C(N)=O)C4)cnn2c1 (stereo partly shown)"
  observation-type: "IC50"
  measured-result: "< 5 nM"

Please look at the following compound next.
The compound listed as Cn1cc(-c2ccc3c(C(=O)N[C@H]4CC5(C4)C[C@H](Oc4ncccc4C(N)=O)C5)nn(C(F)F)c3c2)cn1 (stereo partly shown) shows IC50 equal to < 5 nM

====

# system-name: ROCK2 (Homo sapiens)
# assay-remarks: ROCK2 kinase inhibition assay (LABCHIP 3000 Reader, FITC peptide substrate)
# settings: read-out: ROCK2 Activity (ROCK2 IC50); 5 μM ATP, 1.5 μM peptide substrate, pH 7.5
Structures can show the parent of a compound that is named as a salt.
observation-type: IC50

Sample records with IC50:
- molecule: "Cc1nc(C(=O)NC2CC3(C2)CC(Oc2ncccc2C(N)=O)C3)c2ccc(-c3cnn(C)c3)cn12 (stereo not shown)"
  system-name: "ROCK2 (Homo sapiens)"
  IC50: "5 to 50 nM"
- molecule: "CN1CCN(c2cc(C(=O)NC3CC4(C3)CC(Oc3ncccc3C(N)=O)C4)cc(C(F)(F)F)c2)CC1 (stereo not shown)"
  system-name: "ROCK2 (Homo sapiens)"
  IC50: "5 to 50 nM"
- molecule: "CC(C)(O)Cn1nc(C(=O)NC2CC3(C2)CC(Oc2ncccc2C(N)=O)C3)c2ccc(F)cc21 (stereo not shown)"
  system-name: "ROCK2 (Homo sapiens)"
  IC50: "5 to 50 nM"
- molecule: "C[C@@H]1CN(c2ccc3c(C(=O)NC4CC5(C4)CC(Oc4ncccc4C(N)=O)C5)nc(C(F)F)n3c2)C[C@H](C)O1 (stereo partly shown)"
  system-name: "ROCK2 (Homo sapiens)"
  IC50: "< 5 nM"
- molecule: "Cc1c(C(=O)N[C@H]2CC3(C2)C[C@H](Oc2ncccc2C(N)=O)C3)cnn1-c1ccc(C#N)cc1F (stereo partly shown) [Example 388, trifluoroacetic acid salt]"
  system-name: "ROCK2 (Homo sapiens)"
  IC50: "50 to 250 nM"
- molecule: "CC1(O)CCN(c2cc(C(=O)NC3CC4(C3)CC(Oc3ncccc3C(N)=O)C4)cc(C(F)(F)F)c2)CC1 (stereo not shown)"
  system-name: "ROCK2 (Homo sapiens)"
  IC50: "5 to 50 nM"
- molecule: "Cc1c(-c2cc(C(=O)NC3CC4(C3)CC(Oc3ncccc3C(N)=O)C4)cc(C(F)(F)F)c2)cnn1C (stereo not shown)"
  system-name: "ROCK2 (Homo sapiens)"
  IC50: "< 5 nM"
- molecule: "Cc1nn(C)cc1-c1ccc2c(C(=O)NC3CC4(C3)CC(Oc3ncccc3C(N)=O)C4)nc(C)n2c1 (stereo not shown)"
  system-name: "ROCK2 (Homo sapiens)"
  IC50: "5 to 50 nM"

Now examine the next entry.
The recorded IC50 for COc1ccc2c(c1)CCc1c(C(=O)NC3CC4(C3)CC(Oc3ncccc3C(N)=O)C4)nn(C)c1-2 (stereo not shown) is 5 to 50 nM
